Ref: patent US9834542B2

Target: LXRβ (Homo sapiens, UniProt P55055)
Construct: Co-transfection expression plasmids, comprising full-length LXRα (pCMX-h LXRα[…] or LXRβ (pCMX-hLXRβ))
Sequence (P55055 whole entry): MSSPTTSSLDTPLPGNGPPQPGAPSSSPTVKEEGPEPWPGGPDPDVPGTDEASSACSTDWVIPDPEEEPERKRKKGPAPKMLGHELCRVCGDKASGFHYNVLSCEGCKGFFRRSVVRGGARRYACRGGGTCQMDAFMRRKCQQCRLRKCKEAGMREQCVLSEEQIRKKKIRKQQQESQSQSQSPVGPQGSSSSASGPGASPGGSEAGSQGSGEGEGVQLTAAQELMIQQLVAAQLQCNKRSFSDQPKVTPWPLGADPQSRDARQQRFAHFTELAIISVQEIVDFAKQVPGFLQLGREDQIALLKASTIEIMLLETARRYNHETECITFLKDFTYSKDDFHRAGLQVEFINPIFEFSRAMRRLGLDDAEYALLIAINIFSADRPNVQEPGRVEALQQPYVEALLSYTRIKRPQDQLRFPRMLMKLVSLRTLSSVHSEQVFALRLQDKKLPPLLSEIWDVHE
Sequence (P19793 whole entry partner): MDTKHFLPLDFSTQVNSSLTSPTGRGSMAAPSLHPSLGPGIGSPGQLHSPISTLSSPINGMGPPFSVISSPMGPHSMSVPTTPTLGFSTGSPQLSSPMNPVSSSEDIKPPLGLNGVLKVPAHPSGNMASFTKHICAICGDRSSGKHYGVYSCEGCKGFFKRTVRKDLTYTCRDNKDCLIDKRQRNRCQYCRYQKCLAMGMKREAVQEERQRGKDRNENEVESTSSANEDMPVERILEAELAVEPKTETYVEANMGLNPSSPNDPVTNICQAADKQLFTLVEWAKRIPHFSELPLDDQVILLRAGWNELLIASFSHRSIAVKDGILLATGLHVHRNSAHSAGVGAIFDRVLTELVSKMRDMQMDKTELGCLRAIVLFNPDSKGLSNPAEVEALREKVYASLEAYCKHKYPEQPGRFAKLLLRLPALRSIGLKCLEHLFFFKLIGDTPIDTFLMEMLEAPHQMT
Assay: Co-transfection assay (LXRE luciferase reporter), LXRβ
Settings: CV-1 cells transfected with pCMX-hLXRβ and LXREx1-Tk-Luciferase; 20 hours incubation
Parameter: pEC50. Scope: all listed entries.
# reply with the number alone; pEC50 is -log10 of concentration in mol/L

compound | recorded_number
Cc1nc(C(F)(F)F)cn1-c1ccc(-c2cccc(C(C)(C)C(N)=O)c2)cc1-n1nncc1Cc1ccc(Cl)cc1 | 6.09

(Q) Provide measured pEC50 value, entry: "Cc1nc(C(=O)C(C)C)cn1-c1ccc(-c2cccc(S(C)(=O)=O)c2)cc1-n1nncc1-c1ccc(OC(F)(F)F)cc1"
(A) 5.92

(Q) Provide measured pEC50 value, entry: "CS(=O)(=O)c1cccc(-c2ccc(-n3cc(C(F)(F)F)nc3Cl)c(-n3nncc3-c3ccc(OC(F)(F)F)cc3)c2)c1"
(A) 6.60

(Q) Provide measured pEC50 value, entry: "Cc1nc(C(F)(F)F)cn1-c1ccc(-c2cccc(S(C)(=O)=O)c2)cc1-n1nncc1Cc1ccccc1Cl"
(A) 5.82

(Q) Provide measured pEC50 value, entry: Cc1cc(-c2oc(C)nc2-c2cc(-c3cc(F)c(CO)c(S(C)(=O)=O)c3)ccc2-n2cc(C(F)(F)F)nc2C)cc(Cl)n1 [Example 432]
(A) 7.35

(Q) Provide measured pEC50 value, entry: "Cc1nc(-c2cc(-c3ccc(CO)c(S(C)(=O)=O)c3)ccc2-n2cc(C(F)(F)F)nc2C)c(-c2ccc(OC(F)(F)F)cc2)o1"
(A) 7.38

(Q) Provide measured pEC50 value, entry: "Cc1nc(C(F)(F)F)cn1-c1ccc(-c2cc(F)c(CO)c(S(C)(=O)=O)c2)cc1-c1nc(C(C)C)oc1-c1ccc2c(c1)OC(F)(F)O2"
(A) 7.27

----------
Molecular target: LXRβ (Homo sapiens, UniProt P55055)
Construct: Co-transfection expression plasmids, comprising full-length LXRα (pCMX-h LXRα[…] or LXRβ (pCMX-hLXRβ))
Experiment: Co-transfection assay (LXRE luciferase reporter), LXRβ
Conditions: CV-1 cells transfected with pCMX-hLXRβ and LXREx1-Tk-Luciferase; 20 hours incubation
pEC50: −log10 of the molar value.
Classify by pEC50. Ranges: I = under 6, II = from 6 up to 7, III = 7 and over

Answered examples (5):
compound | study_system | class_name
Cc1nc(C(C)(F)F)cn1-c1ccc(-c2cccc(S(C)(=O)=O)c2)cc1-n1nncc1-c1ccc(Cl)cc1Cl [Example 180] | LXRβ (Homo sapiens, UniProt P55055) | II
CCS(=O)(=O)c1cccc(-c2ccc(-n3cc(C(F)(F)F)nc3C)c(-n3nncc3C(C)c3ccc(C)cc3)c2)c1 (centres unmarked) [Example 107] | LXRβ (Homo sapiens, UniProt P55055) | II
COCc1c(F)cc(-c2ccc(-n3cc(C(C)(F)F)nc3C)c(-n3nncc3-c3ccc(OC(F)(F)F)cc3)c2)cc1S(C)(=O)=O [Example 179] | LXRβ (Homo sapiens, UniProt P55055) | II
Cc1nc(-c2cc(-c3cccc(S(C)(=O)=O)c3)ccc2-n2cc(C(F)(F)F)nc2C)c(-c2ccc(OC(F)F)c(OCC3CC3)c2)o1 [Example 382] | LXRβ (Homo sapiens, UniProt P55055) | III
Cc1nc(-c2cc(-c3cccc(S(C)(=O)=O)c3)ccc2-n2cc(C(F)(F)F)nc2C)c(-c2ccc(Cl)cc2F)o1 [Example 484] | LXRβ (Homo sapiens, UniProt P55055) | III

(Q) Given Cc1nc(-c2cc(-c3cc(F)cc(S(C)(=O)=O)c3)ccc2-n2cc(C(F)(F)F)nc2C)c(-c2ccc(OC(F)F)c(F)c2)o1 [Example 462] , name the class its pEC50 places it in.
(A) II

(Q) Given Cc1nc(C(F)F)cn1-c1ccc(-c2cccc(S(=O)(=O)N(C)C)c2)cc1-n1nncc1C(C)c1ccc(Cl)cc1 (centres unmarked) [Example 132] , name the class its pEC50 places it in.
(A) II

(Q) Given CS(=O)(=O)c1cc(-c2cc(F)c(-n3cnc(C(F)(F)F)c3)c(-n3nncc3-c3ccc(Cl)cc3Cl)c2)cc(F)c1CO [Example 190] , name the class its pEC50 places it in.
(A) II

(Q) Given Cc1nc(C(F)(F)F)cn1-c1c(F)cc(-c2cccc(S(=O)(=O)N3CCCC3)c2)cc1-n1nncc1-c1ccc(OC(F)(F)F)cc1 [Example 199] , name the class its pEC50 places it in.
(A) II

(Q) Given Cc1nc(C(=O)NCC(F)(F)F)cn1-c1ccc(-c2cccc(S(C)(=O)=O)c2)cc1-n1nncc1-c1ccc(OC(F)(F)F)cc1 [Example 3] , name the class its pEC50 places it in.
(A) I

(Q) Given Cc1nc(C(F)(F)F)cn1-c1ccc(-c2cccc(S(C)(=O)=O)c2)cc1-n1nncc1-c1ccc(C(F)(F)F)nc1 [Example 80] , name the class its pEC50 places it in.
(A) I

(Q) Given Cc1nc(C(F)(F)F)cn1-c1ccc(-c2ccc(CO)c(S(C)(=O)=O)c2)cc1-c1ocnc1Cc1ccc(Cl)cc1 [Example 635] , name the class its pEC50 places it in.
(A) II

----------
Biological target: LXRβ (Homo sapiens, UniProt P55055)
Construct: Co-transfection expression plasmids, comprising full-length LXRα (pCMX-h LXRα[…] or LXRβ (pCMX-hLXRβ)); expressed in transfected cells; host or cells: CV-1 African Green Monkey Kidney Cells
Assay: Co-transfection assay (LXRE luciferase reporter), LXRβ
Assay type: cell-based
Conditions: LXRβ co-transfection; relative to high control 1-(2,4-difluorobenzyl)-2-oxo-6-(4-phenoxyphenyl)-4-(trifluoromethyl)-1,2-dihydropyridine-3-carbonitrile; read-out: % Efficacy
Parameter: Emax. Scope: all listed entries.
The reply should contain only the number, in %.

compound | Emax / %
CS(=O)(=O)c1cccc(-c2ccc(-n3cc(C(F)(F)F)nc3Cl)c(-n3nncc3-c3ccc(Cl)cc3)c2)c1 [Example 2] | 80
COCc1c(F)cc(-c2cc(F)c(-n3cc(C(F)(F)F)nc3C)c(-n3nncc3-c3ccc(Cl)cc3)c2)cc1S(C)(=O)=O [Example 207] | 76
Cc1nc(C(F)(F)F)cn1-c1ccc(-c2cccc(C(C)(C)C(N)=O)c2)cc1-n1nncc1-c1ccc(OC(F)(F)F)cc1 [Example 27] | 83

(Q) Quote Emax with test system LXRβ (Homo sapiens, UniProt P55055) for Cc1nc(-c2cc(-c3cc(F)c(CO)c(S(C)(=O)=O)c3)ccc2-n2cc(C(F)(F)F)nc2C)c(-c2ccc(Cl)cc2)o1 [Example 374]
(A) 72

(Q) Quote Emax with test system LXRβ (Homo sapiens, UniProt P55055) for Cc1nc(C(F)(F)F)cn1-c1ccc(-c2cc(F)c(CO)c(S(C)(=O)=O)c2)cc1-n1nncc1C1(c2ccc(Cl)cc2)CC1 [Example 106]
(A) 48

(Q) Quote Emax with test system LXRβ (Homo sapiens, UniProt P55055) for CCOc1ncc(-c2oc(C)nc2-c2cc(-c3ccc(C)c(S(C)(=O)=O)c3)ccc2-n2cc(C(F)(F)F)nc2C)cc1F [Example 473]
(A) 50

----------
Molecular target: LXRβ (Homo sapiens)
Construct: Co-transfection expression plasmids, comprising full-length LXRα (pCMX-h LXRα[…] or LXRβ (pCMX-hLXRβ)); expressed in transfected cells; host or cells: CV-1 African Green Monkey Kidney Cells
Assay: Co-transfection assay (LXRE luciferase reporter), LXRβ
Assay type: cell-based
Conditions: LXRβ co-transfection; relative to high control 1-(2,4-difluorobenzyl)-2-oxo-6-(4-phenoxyphenyl)-4-(trifluoromethyl)-1,2-dihydropyridine-3-carbonitrile; read-out: % Efficacy
Parameter: Emax. Scope: all listed entries.

compound | result
Cc1nc(C(F)(F)F)cn1-c1ccc(-c2cc(F)c(CO)c(S(C)(=O)=O)c2)cc1-n1nncc1C(C)c1ccc(Cl)cc1 (stereo not drawn) | 53%

(Q) Provide measured Emax value, entry: "Cc1nc(-c2cc(-c3cccc(S(C)(=O)=O)c3)ccc2-n2cc(C(F)(F)F)nc2C)c(-c2ccc(F)c(OC(F)F)c2)o1"
(A) 64%

(Q) Provide measured Emax value, entry: "Cc1nc(-c2cc(-c3cc(F)c(CO)c(S(C)(=O)=O)c3)ccc2-n2cc(C(F)(F)F)nc2C)c(-c2cc(Cl)cc(Cl)c2)o1"
(A) 45%

----------
Target: LXRβ (Homo sapiens, UniProt P55055)
Construct: Co-transfection expression plasmids, comprising full-length LXRα (pCMX-h LXRα[…] or LXRβ (pCMX-hLXRβ))
Assay: Co-transfection assay (LXRE luciferase reporter), LXRβ
Conditions: CV-1 cells transfected with pCMX-hLXRβ and LXREx1-Tk-Luciferase; 20 hours incubation
quantity: EC50 (nM)
The reply should contain only the number, in nM.

Completed entries (count: 2):
smiles_str | EC50 [nM]
Cc1nc(-c2cc(-c3cccc(S(C)(=O)=O)c3)ccc2-n2cc(C(F)(F)F)nc2C)c(-c2ccc(F)cc2)o1 | 144
CS(=O)(=O)c1cccc(-c2ccc(-n3cc(C(F)(F)F)nc3C(F)F)c(-n3nncc3-c3ccc(OC(F)(F)F)cc3)c2)c1 | 677

Next molecule, EC50 to be filled in.
(Q) Quote EC50 with test system LXRβ (Homo sapiens, UniProt P55055) for "Cc1ncc(-c2oc(C)nc2-c2cc(-c3cc(F)c(CO)c(S(C)(=O)=O)c3)ccc2-n2cc(C(F)(F)F)nc2C)cn1"
(A) 3090
